target: Ded1-M339I (Saccharomyces cerevisiae, UniProt P06634 1-604, M339I); assay: fluorescence anisotropy; 2 mM ADP-BeFx; 20 mM HEPES pH 7.5, 40 mM NaCl, 20% glycerol, 2 mM ADP-BeFx; 2 nM RNA, 0-400 nM protein, 30 min; temperature not stated; conditions: protein: recombinant; tags: His (pET28a); label: 5' 6-carboxyfluorescein; single strand
Sequence (P06634 whole entry M339I): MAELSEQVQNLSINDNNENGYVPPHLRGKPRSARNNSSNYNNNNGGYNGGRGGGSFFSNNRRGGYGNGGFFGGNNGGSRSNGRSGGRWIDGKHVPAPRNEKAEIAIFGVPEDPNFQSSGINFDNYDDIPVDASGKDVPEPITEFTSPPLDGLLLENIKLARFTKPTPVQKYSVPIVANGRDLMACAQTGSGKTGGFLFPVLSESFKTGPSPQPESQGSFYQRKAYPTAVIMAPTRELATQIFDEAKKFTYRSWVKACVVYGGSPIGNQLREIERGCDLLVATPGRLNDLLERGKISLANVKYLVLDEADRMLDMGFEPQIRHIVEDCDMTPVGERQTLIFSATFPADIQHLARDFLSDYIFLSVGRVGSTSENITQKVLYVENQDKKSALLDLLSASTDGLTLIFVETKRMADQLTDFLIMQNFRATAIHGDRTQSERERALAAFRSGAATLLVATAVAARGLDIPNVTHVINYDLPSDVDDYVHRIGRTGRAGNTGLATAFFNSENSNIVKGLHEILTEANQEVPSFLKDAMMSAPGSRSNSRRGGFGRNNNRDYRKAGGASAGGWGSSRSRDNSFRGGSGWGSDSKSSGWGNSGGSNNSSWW
Measured metric: Kd (nM)
Answer format: numeric, nM implied, no suffix.

Look at this binder and give its reported Kd. AGCACCGUAAAGACGC (ssRNA) [16-mer RNA oligomer] 110

These measurements were taken from paper PMC7949108.
